# pEC50 per record follows
# assay_target: human GHS-R 1a (Homo sapiens, UniProt Q92847)
# Sequence (Q92847 whole entry): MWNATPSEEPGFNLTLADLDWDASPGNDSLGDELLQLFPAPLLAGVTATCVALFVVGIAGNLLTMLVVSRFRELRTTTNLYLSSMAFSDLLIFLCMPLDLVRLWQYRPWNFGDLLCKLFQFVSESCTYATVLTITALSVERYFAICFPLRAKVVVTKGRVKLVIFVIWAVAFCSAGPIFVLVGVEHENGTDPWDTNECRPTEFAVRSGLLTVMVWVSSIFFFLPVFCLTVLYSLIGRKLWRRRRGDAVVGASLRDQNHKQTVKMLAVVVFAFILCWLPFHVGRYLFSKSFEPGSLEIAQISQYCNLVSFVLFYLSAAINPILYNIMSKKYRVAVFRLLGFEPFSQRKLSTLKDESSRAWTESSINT
# experiment_summary: In vitro intracellular calcium release assay using human GHS-R 1a transfected CHO cells
# experimental_conditions: agonists, dose-response curve of intracellular calcium release
Kindly note that pEC50 refers to -log10 of the concentration in mol/L and answer with the value alone.

COc1ccc(Cn2c(CCc3ccccc3)nnc2[C@@H](Cc2c[nH]c3ccccc23)NC(=O)c2ccccc2)c(OC)c1    7.80
O=C(N[C@H](Cc1c[nH]c2ccccc12)c1nnc(CCc2c[nH]c3ccccc23)n1Cc1cccc2ccccc12)C1CCNCC1    8.62
COc1ccc(Cn2c(CCc3cc4ccccc4[nH]3)nnc2[C@@H](Cc2c[nH]c3ccccc23)NC(=O)C2(N)CCNCC2)cc1    8.36
O=C(N[C@H](Cc1c[nH]c2ccccc12)c1nnc(CCCc2c[nH]c3ccccc23)n1Cc1cccc2ccccc12)C1CCCN1 (some centres unmarked)    7.92
NC1(C(=O)N[C@H](Cc2c[nH]c3ccccc23)c2nnc(CCCc3c[nH]c4ccccc34)n2Cc2ccccc2)CCNCC1    8.19

Okay, now this compound:
stdin: Recorded pEC50 of `O=C(N[C@H](Cc1c[nH]c2ccccc12)c1nnc(Cc2ccccc2)n1Cc1ccc(Cl)c(Cl)c1)[C@@H]1CCCN1` , please.
stdout: 7.77

----------
# assay_target: human GHS-R 1a (Homo sapiens)
# experiment_summary: GHS-R 1a receptor-ligand binding assay (membrane preparations from transfected LLC PK-1 cells)
# experimental_conditions: displacement of 125I-His9-ghrelin; plasma membranes of LLC PK-1 cells transiently transfected with human GHS-R 1a; mean of at least two independent experiments in triplicates
# IC50 per record follows
Please state the figure in nM; there is no need to write the unit.

For orientation, consider the following solved cases.
O=C(N[C@H](Cc1c[nH]c2ccccc12)c1nnc(CCc2ccccc2)n1CCc1ccccc1)C1CCCCC1    707
COc1ccc(Cn2c(CCc3c[nH]c4ccccc34)nnc2[C@@H](Cc2c[nH]c3ccccc23)NC(=O)c2cccc(CN)c2)cc1    11.1

stdin: Recorded IC50 of `COc1ccc(Cn2c(CCc3cc4ccccc4[nH]3)nnc2[C@@H](Cc2c[nH]c3ccccc23)NC(=O)C2(N)CCNCC2)cc1` , please.
stdout: 16

stdin: Recorded IC50 of `O=C(N[C@H](Cc1c[nH]c2ccccc12)c1nnc(Cc2ccccc2)n1Cc1ccc(Cl)c(Cl)c1)C1CCNCC1` , please.
stdout: 5

----------
# assay_target: human GHS-R 1a (Homo sapiens, UniProt Q92847)
# experiment_summary: In vitro intracellular calcium release assay using human GHS-R 1a transfected CHO cells
# Format: cell-based
# Set-up: expressed in transfected cells; host or cells: CHO-K1 Chinese hamster ovary cells (ATCC No. CCL-61), transient transfection by electroporation
# experimental_conditions: intracellular calcium release, compound at 10^-6 M, relative to basal level (0%) and 1 μM ghrelin (100%)
# Protocol: The ability to properly activate the receptors is assessed for any compound of the invention by comparing the degree of activation (increase of intracellular calcium) of GHS-R 1a by the compound to be tested (at 10^−6 M concentration) to the degree of activation (increase of intracellular calcium) of GHS-R 1a by 10^−6 M ghrelin (100%) and to the basal level (0%). Such assessment can be readily performed by the skilled artisan due to his expert knowledge. […]
# activation at 1 µM per record follows
Please state the figure in %; there is no need to write the unit.

For orientation, consider the following solved cases.
NC1(C(=O)N[C@H](Cc2c[nH]c3ccccc23)c2nnc(CCc3c[nH]c4ccccc34)n2Cc2cccc3ccccc23)CCNCC1    100
COc1ccc(Cn2c(CCc3c[nH]c4ccccc34)nnc2[C@@H](Cc2c[nH]c3ccccc23)NC(=O)c2ccn[nH]2)cc1    15
O=C(N[C@H](Cc1c[nH]c2ccccc12)c1nnc(Cc2ccccc2)n1Cc1ccc(Cl)c(Cl)c1)c1ccccn1    20

stdin: Recorded activation at 1 µM of `COc1ccc(Cn2c(CCc3ccccc3)nnc2[C@@H](Cc2c[nH]c3ccccc23)NC(=O)c2ccccc2)c(OC)c1` , please.
stdout: 31

stdin: Recorded activation at 1 µM of `O=C(N[C@H](Cc1c[nH]c2ccccc12)c1nnc(CCc2c[nH]c3ccccc23)n1Cc1cccc2ccccc12)c1ccccn1` , please.
stdout: 1

stdin: Recorded activation at 1 µM of `NC1(C(=O)N[C@H](Cc2c[nH]c3ccccc23)c2nnc(CCc3ccccc3)n2Cc2cccc3ccccc23)CCNCC1` , please.
stdout: 100
